Catalogue of IC50 at 48 h readings, one per entry.
- method summary: Cytotoxicity against HEK293 cells assessed as inhibition of cell growth incubated for 48 hrs by Cell-Titer Glo reagent based analysis
- Assay type: toxicity
- condition context: human
readout kind: IC50 at 48 h

INSERT INTO results (compound, value_observed) VALUES
  ('CN1C(=O)[C@@H]2NC(=O)[C@@H]3NC(=O)[C@@H](c4ccc(O)cc4)NC(=O)[C@H](NC(=O)Cc4ccc(O)cc4)Cc4c[nH]c5cc(ccc45)-c4cc3cc(c4O)Oc3ccc(cc3)C[C@H]1C(=O)N[C@@H](C(=O)NCCC[N+](C)(C)C)c1ccc(O)c(c1)Oc1ccc2cc1', '> 256 µg/mL'),
  ('CN(C)CCCNC(=O)[C@@H]1NC(=O)[C@@H]2Cc3ccc(cc3)Oc3cc4cc(c3O)-c3ccc5c(c[nH]c5c3)C[C@@H](NC(=O)C(NC(=O)CCCCCN)c3ccc(O)cc3)C(=O)N[C@H](c3ccc(O)cc3)C(=O)N[C@H]4C(=O)N[C@@H](C(=O)N2C)c2ccc(cc2)Oc2cc1ccc2O (stereo partly drawn)', '> 256 µg/mL'),
  ('CN1C(=O)[C@@H]2NC(=O)[C@@H]3NC(=O)[C@@H](c4ccc(O)cc4)NC(=O)[C@H](NC(=O)C(NC(=O)CCCCCN)c4ccc(O)cc4)Cc4c[nH]c5cc(ccc45)-c4cc3cc(c4O)Oc3ccc(cc3)C[C@H]1C(=O)N[C@@H](C(=O)O)c1ccc(O)c(c1)Oc1ccc2cc1 (stereo partly drawn)', '> 256 µg/mL');
